- system.under.test: prostate specific membrane antigen (PSMA) (UniProt Q04609 1-750, limits assumed)
- Sequence (Q04609 whole entry): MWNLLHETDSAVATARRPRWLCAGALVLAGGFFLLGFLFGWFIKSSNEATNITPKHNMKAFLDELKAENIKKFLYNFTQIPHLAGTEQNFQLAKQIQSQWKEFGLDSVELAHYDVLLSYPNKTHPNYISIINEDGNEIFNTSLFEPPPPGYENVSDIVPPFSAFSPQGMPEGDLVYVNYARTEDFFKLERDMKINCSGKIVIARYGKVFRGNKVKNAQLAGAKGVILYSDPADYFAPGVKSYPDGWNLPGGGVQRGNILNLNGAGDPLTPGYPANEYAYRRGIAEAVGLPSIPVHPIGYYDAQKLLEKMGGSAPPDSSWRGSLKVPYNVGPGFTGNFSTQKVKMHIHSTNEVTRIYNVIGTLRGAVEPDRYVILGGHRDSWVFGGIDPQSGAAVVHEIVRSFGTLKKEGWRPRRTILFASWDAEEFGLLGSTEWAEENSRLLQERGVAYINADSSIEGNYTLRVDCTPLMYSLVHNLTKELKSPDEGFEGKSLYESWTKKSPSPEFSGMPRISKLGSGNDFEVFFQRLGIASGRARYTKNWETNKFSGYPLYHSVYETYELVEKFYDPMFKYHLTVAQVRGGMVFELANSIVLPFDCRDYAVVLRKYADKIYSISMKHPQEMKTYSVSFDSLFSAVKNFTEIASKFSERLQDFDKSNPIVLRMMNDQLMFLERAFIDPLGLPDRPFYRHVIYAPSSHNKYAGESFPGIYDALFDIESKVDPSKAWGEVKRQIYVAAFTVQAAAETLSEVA
- test.name: cell-based or functional assay
measured.property: MDA-PCA-2B cells IC50 (nM), cytotoxicity (CellTiterGlo)
Return type: number; implicit unit nM.

Completed entries (count: 3):
Reported MDA-PCA-2B cells IC50 (nM), cytotoxicity (CellTiterGlo) ( P233FR9_H10 vcMMAF conjugate (designed binder, vc-MMAF conjugated through a sortase tag (Gly3-vc-MMAF, sortase A)) LPAPKNLVVSRVTEDSARLSWTAPDAAFDSFAIGYWEWDDDGEAIVLTVPGSERSYDLTGLKPGTEYPVYIAGVKGGQWSFPLSAIFTT ) = 5.8

Reported MDA-PCA-2B cells IC50 (nM), cytotoxicity (CellTiterGlo) ( P234CR9_H01 vcMMAF conjugate (designed binder, vc-MMAF conjugated through a sortase tag (Gly3-vc-MMAF, sortase A)) LPAPKNLVVSRVTEDSARLSWEWWVIPGDFDSFLIQYQESEKVGEAIVLTVPGSERSYDLTGLKPGTEYTVSIYGVVNSGQWNDTSNPLSAIFTT ) = 151

Reported MDA-PCA-2B cells IC50 (nM), cytotoxicity (CellTiterGlo) ( P233FR9P1001-H3-1 vcMMAF conjugate (designed binder, vc-MMAF conjugated through a sortase tag (Gly3-vc-MMAF, sortase A)) LPAPKNLVVSRVTEDSARLSWTAPDAAFDSFPIGYWEWDDDGEAIVLTVPGSERSYDLTGLKPGTEYHVYIAGVKGGQWSFPLSAIFTT ) = 4.6

Next:
Reported MDA-PCA-2B cells IC50 (nM), cytotoxicity (CellTiterGlo) ( P229CR5P819_H11 vcMMAF conjugate (designed binder, vc-MMAF conjugated through a sortase tag (Gly3-vc-MMAF, sortase A)) LPAPKNLVVSRVTEDSARLSWDIDEQRDWFDSFLIQYQESEKVGEAIVLTVPGSERSYDLTGLKPGTEYTVSIYGVYHVYRSSNPLSAIFTT ) = 107
